test.protocol: IUF_NPC3_neuronal_differentiation_120hr: Leibniz Research Institute for Environmental Medicine (IUF) 120-hour Neuronal Differentiation Assay (NPC3) (AID 2284301)
Activity calls are given as the source filed them. The calls were made as follows: active = hit-call score of the fitted dose curve at least 0.9, where 1 is the maximum; inactive = score below 0.9.
Pick one and only one: true = active, false = inactive

Answered examples (10):
CP(=O)(O)CCC(N)C(=O)O (stereo not given) ... false
CC1(C)[C@H](C=C(Cl)Cl)[C@H]1C(=O)OCc1c(F)c(F)cc(F)c1F ... false
CC1(C)[C@H](C(=O)O[C@H](C#N)c2cccc(Oc3ccccc3)c2)[C@@H]1C=C(Br)Br ... false
CC(=O)[O-].CC(=O)[O-].O.O.O.[Pb+2] ... false
O=[As]O ... false
COP(=O)(OC)SCN1C(=O)c2ccccc2C1=O ... false
C/C(=C/C=C/[C@@H](C)C(=O)O)[C@H]1CN[C@H](C(=O)O)[C@H]1CC(=O)O ... false
CC(C)CCCCCCCOP(=O)(Oc1ccccc1)Oc1ccccc1 ... false
CCOP(=O)(OCC)SCSC(C)(C)C ... false
Brc1ccc(Oc2cc(Br)c(Br)cc2Br)c(Br)c1 ... false

Task: How was "Cn1nc(C(F)(F)F)c(CS(=O)(=O)C2=NOC(C)(C)C2)c1OC(F)F" classified in this test?
Result: true

Task: How about this molecule: "C[n+]1ccc(-c2ccccc2)cc1"
Result: false

----------
experimental.target: bovine Estrogen Receptor (ER), ESR1 (gene 407238)
test.protocol: NVS_NR_bER: NovaScreen (NVS) Nuclear Receptor Binding Assay for bovine Estrogen Receptor (ER) (AID 2283345);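 also: actives lower the bound radioligand count which means they displace the ER ligand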
Inconclusive results are not listed. Activity calls are given as the source filed them. The calls were made as follows: active = hit-call score of the fitted dose curve at least 0.9, where 1 is the maximum; inconclusive = response in the unintended direction; inactive = score below 0.9.
Pick one and only one: Y (active), N (inactive)

Task: How was OC(c1ccc(F)cc1)(c1cncnc1)c1ccccc1Cl (stereo unspecified) classified in this test?
Result: N

Task: How about this compound: "COc1cc(OC)c(OC)cc1C=O"
Result: N

----------
Read-out: Interleukin-6 (IL6), IL6 (gene 3569)
test.protocol: BSK_CASM3C_IL6: BioMAP Diversity Plus: CASM3C Assay for Interleukin-6 (IL6) Biomarker Activity for (AID 2283040)
experimental.conditions: primary human coronary artery smooth muscle cells; actives raise or lower the signal
Active and inactive are the calls of the source. How the source made its calls: active means hit-call score of the fitted dose curve at least 0.9, where 1 is the maximum; inactive means score below 0.9.
Pick one and only one: active, inactive

CCCC[N+](CCCC)(CCCC)CCCC ... inactive
CCC(C)c1cc([N+](=O)[O-])cc([N+](=O)[O-])c1OC(=O)C=C(C)C (stereo not drawn) ... inactive
O=P1(NCCCl)OCCCN1CCCl (stereo not drawn) ... inactive
CC(C)(c1cc(Cl)c(O)c(Cl)c1)c1cc(Cl)c(O)c(Cl)c1 ... active
CNC(=O)Oc1cc(C)c(SC)c(C)c1 ... inactive

Task: How was "N#CCCCCC#N" classified in this test?
Result: inactive

----------
experimental.target: Retinoic acid receptor alpha (Homo sapiens) (UniProt P10276)
Sequence (P10276 whole entry, looked up): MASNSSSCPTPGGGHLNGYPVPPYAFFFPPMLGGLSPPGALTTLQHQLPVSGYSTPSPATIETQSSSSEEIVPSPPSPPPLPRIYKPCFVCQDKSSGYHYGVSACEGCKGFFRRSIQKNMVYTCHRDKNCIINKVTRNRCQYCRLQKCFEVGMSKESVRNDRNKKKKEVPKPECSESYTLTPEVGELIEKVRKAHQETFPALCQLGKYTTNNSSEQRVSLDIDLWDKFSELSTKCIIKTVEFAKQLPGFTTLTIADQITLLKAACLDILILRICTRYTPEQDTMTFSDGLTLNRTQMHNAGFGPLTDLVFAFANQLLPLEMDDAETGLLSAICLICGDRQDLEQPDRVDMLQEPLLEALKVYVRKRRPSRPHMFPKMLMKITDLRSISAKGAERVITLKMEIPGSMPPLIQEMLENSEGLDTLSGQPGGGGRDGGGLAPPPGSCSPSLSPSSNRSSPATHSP
test.protocol: ATG_DR5_RAR_CIS: Attagene CIS-FACTORIAL HepG2 Assay for human Retinoic Acid Receptor Alpha (RARE), DR5 submotif (AID 2282934)
experimental.conditions: HepG2 Attagene cis-factorial RARE DR5 reporter, mRNA; actives raise or lower the signal
The source made the active and inactive calls. How the source made its calls: active means hit-call score of the fitted dose curve at least 0.9, where 1 is the maximum; inactive means score below 0.9.
Pick one and only one: 1 (yes) = active, 0 (no) = inactive

Answered examples (10):
O=C=Nc1ccccc1 ... 0 (no)
Cl/C=C\CCl ... 0 (no)
COC(C)(C)CCC[C@H](C)C/C=C/C(C)=C/C(=O)OC(C)C ... 0 (no)
O=C(O)CCl ... 0 (no)
O=C1C(Cl)=C(Cl)C(=O)C(Cl)=C1Cl ... 0 (no)
CCC1CCC(=O)O1 (stereo unspecified) ... 0 (no)
C=CC(=O)OCC(CC)CCCC (stereo unspecified) ... 1 (yes)
CCOC(=O)NC(=S)Nc1ccccc1NC(=S)NC(=O)OCC ... 0 (no)
CCCCCCC1CCOC1=O (stereo unspecified) ... 0 (no)
CN(C)N ... 0 (no)

Task: How was "[N-]=[N+]=CC(=O)OC[C@H](N)C(=O)O" classified in this test?
Result: 0 (no)

Task: How about this molecule: CC(O)CN(CC(C)O)CC(C)O (stereo unspecified)
Result: 0 (no)

Task: How about this molecule: "C=C(Cl)CCl"
Result: 0 (no)

Task: How about this molecule: Cc1ccc(OP(=O)(Oc2ccc(C)cc2)Oc2ccc(C)cc2)cc1 (tested in a mixture with another compound)
Result: 0 (no)

Task: How about this molecule: "Nc1ccccc1C(=O)Oc1ccc2ccccc2c1"
Result: 1 (yes)

Task: How about this molecule: O=C1Nc2ccc(Cl)cc2C(c2ccccc2)=NC1O (stereo unspecified)
Result: 0 (no)

----------
experimental.target: Cellular tumor antigen p53 (Homo sapiens) (UniProt P04637)
Sequence (P04637 whole entry, looked up): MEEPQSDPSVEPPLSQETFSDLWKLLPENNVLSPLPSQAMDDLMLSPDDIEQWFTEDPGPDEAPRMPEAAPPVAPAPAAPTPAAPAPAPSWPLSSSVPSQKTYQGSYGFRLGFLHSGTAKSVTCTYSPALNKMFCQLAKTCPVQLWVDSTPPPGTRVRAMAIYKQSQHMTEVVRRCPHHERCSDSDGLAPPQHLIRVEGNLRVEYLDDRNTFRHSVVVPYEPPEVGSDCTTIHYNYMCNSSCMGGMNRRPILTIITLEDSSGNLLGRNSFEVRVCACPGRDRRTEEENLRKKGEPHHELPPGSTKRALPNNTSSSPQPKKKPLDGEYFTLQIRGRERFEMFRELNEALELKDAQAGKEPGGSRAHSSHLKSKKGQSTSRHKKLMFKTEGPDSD
test.protocol: TOX21_p53_BLA_p2_ratio: Tox21 HCT-116 p53 Agonism Beta-lactamase Assay, Ratio, Phase 2 (AID 2283592)
Inconclusive results are not listed. Calls of active or inactive are those of the source. The calls were made as follows: active = hit-call score of the fitted dose curve at least 0.9, where 1 is the maximum; inconclusive = response in the unintended direction; inactive = score below 0.9.
Pick one and only one: 1 for active, 0 for inactive

Answered examples (6):
CCN(CC)Cc1nccn1-c1ccc([N+](=O)[O-])cc1C(=O)c1ccccc1Cl ... 0
CC(O)CN1CCN(CC(=O)[O-])CCN(CC(=O)[O-])CCN(CC(=O)[O-])CC1.[Gd+3] (configuration not stated) ... 0
Cc1ncc(C[n+]2csc(CCO)c2C)c(N)n1 ... 0
C=C(Cl)CSC(=S)N(CC)CC ... 0
Cc1nnc2n1-c1sc(CCc3ccc(CC(C)C)cc3)cc1C(c1ccccc1Cl)=NC2C (configuration not stated) ... 1
Cn1c(N)nc2c3cccnc3ccc21 ... 0

Kindly review the next compound as well.
Task: How was CN1CCc2cc3c(cc2C1O)OCO3 (configuration not stated) classified in this test?
Result: 1

----------
experimental.target: rat Monoamine Oxidase, MAO-B, Central (MAOBC), Maob (gene 25750)
test.protocol: NVS_ENZ_rMAOBC: NovaScreen (NVS) Enzymatic Assay for rat Monoamine Oxidase, MAO-B, Central (MAOBC) (AID 2283238)
Protocol: NVS_ENZ_rMAOBC is a biochemical, single-readout assay that uses extracted gene-proteins from Rat brain in a tissue-based cell-free assay. Measurements were taken 1.17 hours after chemical dosing in a 96-well plate.NVS_ENZ_rMAOBC is one of one assay component(s) measured or calculated from the NVS_ENZ_rMAOBC assay. […] This assay endpoint, NVS_ENZ_rMAOBC, was analyzed in the positive analysis fitting direction relative to DMSO as the negative control and baseline of activity. […]
Results filed as inconclusive are left out. Calls of active or inactive are those of the source. Rule for the calls: active = hit-call score of the fitted dose curve at least 0.9, where 1 is the maximum; inconclusive = response in the unintended direction; inactive = score below 0.9.
Pick one and only one: 1 = active, 0 = inactive

N#CSCSc1nc2ccccc2s1 ... 0
CCCCCCCCOC(=O)c1cc(O)c(O)c(O)c1 ... 0
O=C(CCCCCCCCc1cccnc1)N1CCC(C=C(c2ccccc2)c2ccccc2)CC1 ... 0
CCOCCOCCO ... 0
N[C@@H](Cc1cc(I)c(Oc2ccc(O)c(I)c2)c(I)c1)C(=O)O ... 0
NC(=O)N(O)[C@@H]1COc2cc(OCc3ccccc3)ccc21 ... 1

Task: How was "NCc1cccc(C2CCN(C(=O)c3ccc(C#Cc4ccccc4F)o3)CC2)c1" classified in this test?
Result: 1

Task: How about this compound: "O=C(O)c1cccc(C[C@@H]2COc3ccc(OCc4nc5cc(F)ccc5s4)cc3[C@@H]2O)c1"
Result: 1

Task: How about this compound: CCOC(=O)C(C)Oc1ccc(Oc2nc3ccc(Cl)cc3o2)cc1 (stereo not given)
Result: 0

Task: How about this compound: "C#C[C@]1(O)CC[C@H]2[C@@H]3CCC4=CC(=O)CC[C@@H]4[C@H]3CC[C@@]21C"
Result: 0

Task: How about this compound: CCOC(=O)c1ccc(C2CCC(NC[C@H](O)COc3ccc(O)c(NS(C)(=O)=O)c3)CC2)cc1 (stereo not given in full)
Result: 1

Task: How about this compound: CCC(C)(C)C1CCC(O)CC1 (stereo not given)
Result: 0

Task: How about this compound: "O=C(c1ccc(O)cc1O)c1ccc(O)cc1O"
Result: 1

Task: How about this compound: "N=C(N)c1ccc(OCCCCCOc2ccc(C(=N)N)cc2)cc1"
Result: 1

----------
Read-out: C-C motif chemokine 2 (Homo sapiens)
test.protocol: BSK_KF3CT_MCP1: BioMAP Diversity Plus: KF3CT Assay for Monocyte Chemoattractant Protein 1 (MCP1/CCL2) Biomarker Activity (AID 2283073)
experimental.conditions: primary human keratinocytes with fibroblasts; actives raise or lower the signal
Activity calls are given as the source filed them. The calls were made as follows: active = hit-call score of the fitted dose curve at least 0.9, where 1 is the maximum; inactive = score below 0.9.
observed.property: AC50

CCCCCCCCCCCC#N ... inactive
O=C1C(Cl)=C(Cl)C(=O)C(Cl)=C1Cl ... 10.1 µM (active)
CC(=O)/C=C/c1ccccc1 ... inactive
CNC(=O)Oc1cc(C)c(SC)c(C)c1 ... inactive
COC(C)(C)CCC[C@H](C)C/C=C/C(C)=C/C(=O)OC(C)C ... inactive
O=P1(NCCCl)OCCCN1CCCl (centres undefined) ... inactive
CC(C)(c1cc(Cl)c(O)c(Cl)c1)c1cc(Cl)c(O)c(Cl)c1 ... 10 µM (active)
O=[N+]([O-])O ... inactive

Task: Look at this compound and give its reported AC50. "c1ccc(Nc2ccc3ccccc3c2)cc1"
Result: 30.9 µM (active)

Task: How about this compound: CCC(C)c1cc([N+](=O)[O-])cc([N+](=O)[O-])c1OC(=O)C=C(C)C (centres undefined)
Result: 36.7 µM (active)

Task: How about this compound: "COCC(=O)N(c1c(C)cccc1C)N1CCOC1=O"
Result: inactive

Task: How about this compound: "CC(C)COP(=O)(OCC(C)C)OCC(C)C"
Result: inactive

Task: How about this compound: CC(C)(C)C(O)C(Oc1ccc(-c2ccccc2)cc1)n1cncn1 (centres undefined)
Result: inactive

Task: How about this compound: "CC(C)CCCCCCCOP(=O)(Oc1ccccc1)Oc1ccccc1"
Result: 31.4 µM (active)
